Here the recorded growth is given for each entry.
# Tested on: MALME-3M melanoma
# Assay procedure: NCI-60 one-dose screen, 48 h (100 = growth as untreated, 0 = no growth, -100 = all killed)
# Setup conditions: 10 µM unless noted
About 83,000 compounds went through this panel and 20% of them were active in at least one assay; those are over-represented in the sample as a whole. Activity calls are given as the source filed them. How the source made its calls: active means growth percent below 10; inactive means the rest.
Experimental endpoint: growth

compound="O=C(c1ccc(OCCN2CCOCC2)cc1)C1[C@H](c2ccc(Cl)cc2)[C@@H](c2ccccc2)NC12C(=O)Nc1ccc(Br)cc12 (some centres undefined)" study_system="MALME-3M melanoma" result="56.3% (inactive)"
compound=Cc1c(C(=O)NNC(=O)Nc2ccc(Cl)cc2)nnn1-c1ccc(Br)cc1 study_system="MALME-3M melanoma" result="90.7% (inactive)"
compound=CN(C)c1ccnc(CNCCSC2(c3ccc(C(F)(F)F)cc3)c3ccccc3CCc3ccccc32)c1 study_system="MALME-3M melanoma" result="-91.8% (active)"
compound=COc1cc2oc(-c3cccc(C(=O)Nc4ccc(Cl)cc4)c3)cc(=O)c2c(OCCNC(=O)[C@H](CO)NC(=O)OC(C)(C)C)c1OC study_system="MALME-3M melanoma" result="20% (inactive)"
compound=CCCCSc1nc(Nc2ccc(S(N)(=O)=O)cc2)c(C#N)c(-c2ccc(Cl)cc2)n1 study_system="MALME-3M melanoma" result="22.9% (inactive)"
compound=O=C(NNc1ccccc1)n1c(=O)c2ccccc2c(=O)n1-c1ccccc1 study_system="MALME-3M melanoma" result="96.5% (inactive)"
compound="CCCS(=O)(=O)N1CCCC(C(=O)Nc2nc3ccc(NC(=O)c4ccc(F)c(OC)c4F)cc3s2)C1 (centres undefined)" study_system="MALME-3M melanoma" result="52.7% (inactive)"
compound=O=C(O)c1cccc(-c2ccc(/C=N/NC(=O)c3[nH]c4ccc(Br)cc4c3-c3ccccc3)o2)c1 study_system="MALME-3M melanoma" result="55.2% (inactive)"
compound=C#CCOc1ccc(/C=N/Nc2nc(-c3ccc(F)cc3)cs2)cc1OC study_system="MALME-3M melanoma" result="86.3% (inactive)"

###

# Test system: UACC-62 melanoma
# Assay procedure: NCI-60 one-dose screen, 48 h (100 = growth as untreated, 0 = no growth, -100 = all killed)
# Setup conditions: 10 µM unless noted
The panel holds about 83,000 compounds, 20% with a hit somewhere; the sample as a whole holds those more often.
Experimental endpoint: growth (%)

molecule="CN(C)CCOc1ccc(C(=O)C2[C@H](c3ccc(Cl)cc3)[C@@H](c3ccccc3)NC23C(=O)Nc2ccc(Br)cc23)cc1 (stereo partly drawn)" recorded_number=43.3
molecule=COc1ccc(C(=O)/C=C/c2ccccc2Br)cc1S(N)(=O)=O recorded_number=34.4
molecule=Clc1cccc(-c2ccc(OCCCN3CCN(c4ccncc4)CC3)cc2)c1 recorded_number=-74.3
molecule="COc1cc2c(c(OC)c1OC)C(=O)CC(c1cccc(NC(=O)[C@@H](N)CC(C)C)c1)O2 (stereo partly drawn)" recorded_number=96.8
molecule=Cn1cc(-c2cc(N)n3nc(-c4cn(C)c5ccccc45)cc3n2)c2cc(Cl)ccc21 recorded_number=-56.2
molecule=COc1ccc(NC(=O)Cn2c3c(sc2=O)[C@H]2[C@@H](O)[C@@H](O)[C@H](O)[C@@H]2CS3)cc1 recorded_number=99.8
molecule="C=C1CCC2C3(C)COC(c4ccccc4)OC3CCC2(C)C1CC(Sc1ccccc1)C1=CCOC1=O (stereo not drawn)" recorded_number=39.5
molecule="Cc1ccccc1[C@H]1C(C(=O)c2ccc(Cl)cc2)C2(N[C@@H]1c1ccccc1)C(=O)Nc1ccc(Cl)cc12 (stereo partly drawn)" recorded_number=-55.5
molecule="CC1(C)CC[C@]2(C(=O)Nc3ccccc3)CC[C@]3(C)C(=CCC4[C@@]5(C)C[C@@H](O)[C@H](O)[C@@](C)(CO)C5CC[C@]43C)C2C1 (stereo partly drawn)" recorded_number=57.5
molecule=Cn1cc(-c2cc3nc(-c4cn(C)c5ncccc45)cc(N)n3n2)c2ccccc21 recorded_number=-0.244
molecule=Cc1ccc(-c2nnc3ccc(N/N=C/c4ccccc4)nn23)cc1 recorded_number=98.4
molecule=O=C(O)c1cccc(-c2ccc(/C=N/NC(=O)c3[nH]c4ccc(Br)cc4c3-c3ccccc3)o2)c1 recorded_number=35.5
molecule=N/C(=N\c1nc2ccccc2s1)NC(=O)Nc1ccccc1Br recorded_number=-7.53
molecule="C#CCOc1cc(N(CC)CC)ccc1C(C(=O)NC(C)(C)C)N(C(=O)C1CCc2cc(F)ccc2O1)c1ccc(F)c(Cl)c1 (stereo not drawn)" recorded_number=45.8
molecule=O=C(NN1C(=O)/C(=C/C=C/c2ccc([N+](=O)[O-])o2)SC1=S)c1cccc(O)c1 recorded_number=-97.4
molecule="COC(=O)/C=C/c1cccc2c1C(=O)NC(C)(c1cc3ccccc3oc1=O)N2 (stereo not drawn)" recorded_number=42.8
molecule=NS(=O)(=O)c1ccc(-n2cc(-c3cccc(NC(=O)c4cc(C(F)(F)F)cc(C(F)(F)F)c4)c3)nn2)cc1 recorded_number=73.8
molecule=NS(=O)(=O)c1ccc(N=Nc2c(O)n(CC(=O)Nc3ccccc3Cl)c3ccccc23)cc1 recorded_number=19.7

###

# Test system: NCI-H522 lung
# Assay procedure: NCI-60 one-dose screen, 48 h (100 = growth as untreated, 0 = no growth, -100 = all killed)
# Setup conditions: 10 µM unless noted
The panel holds about 83,000 compounds, 20% with a hit somewhere; the sample as a whole holds those more often.
growth vs -10%: less than gives True; not less than gives False.

compound=CN1C(=O)/C(=C/c2ccc(C(=O)Nc3ncc(Cc4ccc(Cl)cc4Cl)s3)cc2)SC1=S class_assignment=False
compound=CCCCSc1nc(NCCc2c[nH]c3ccccc23)c(C#N)c(-c2ccccc2)n1 class_assignment=False
compound=Brc1ccc(-c2n(Cc3ccc4ccccc4c3)c(-c3ccccc3)c(-c3ccccc3)[n+]2Cc2ccc3ccccc3c2)cc1 class_assignment=True
compound=COc1cc(-c2cc(-c3cccc(OCC(=O)O)c3)[nH]c(=O)c2C#N)cc(OC)c1OC class_assignment=False
compound=COc1ccc(/C=C2\C(=O)Nc3ccc(Cl)cc32)cc1OCc1ccccn1 class_assignment=False
compound=COc1ccc(C(=O)/C=C/c2ccc(OC)c(OCc3ccccc3)c2)cc1OC class_assignment=True
compound=S=C(Nc1ccc(OCc2nc3ccccc3[nH]2)cc1)NC1CCCCC1 class_assignment=False
compound="COc1c(F)ccc(C(=O)Nc2ccc3nc(NC(=O)C4CCCN(S(=O)(=O)c5ccc(C#N)cc5)C4)sc3c2)c1F (stereo not given)" class_assignment=False
compound=O=C(CCN1C(=O)/C(=C/c2ccc(F)cc2)SC1=S)N1CCOCC1 class_assignment=True

###

# Tested on: UACC-257 melanoma
# Assay procedure: NCI-60 one-dose screen, 48 h (100 = growth as untreated, 0 = no growth, -100 = all killed)
# Setup conditions: 10 µM unless noted
Compounds without any hit were thinned out: in the full panel of roughly 83,000, 20% have a hit.
Experimental endpoint: growth (%)

compound=Cn1cc(-c2cc3nc(-c4cn(C)c5ncc(Br)cc45)cc(N)n3n2)c2cc(Cl)ccc21 recorded_number=-82.7
compound="CCOC(=O)C1=C(N)N(c2ccccc2)C2=C(C(=O)CC(C)(C)C2)C1c1cccc(Cl)c1Cl (centres undefined)" recorded_number=85.4
compound="Cc1ccccc1[C@H]1C(C(=O)c2ccc(Cl)cc2)C2(N[C@@H]1c1ccccc1)C(=O)Nc1ccccc12 (some centres undefined)" recorded_number=-16.4
compound=O=C(NN1C(=O)/C(=C/C=C/c2ccc([N+](=O)[O-])o2)SC1=S)c1cccc(O)c1 recorded_number=-85.2
compound="COc1ccc(NC(=O)[C@@H](N)Cc2ccccc2)cc1C(=O)Nc1cccc(C2CC(=O)c3c(cc(OC)c(OC)c3OC)O2)c1 (some centres undefined)" recorded_number=95.5
compound=COc1cc(/C=C2\C(=N)N=C(SCc3nc4ccccc4[nH]3)NC2=O)ccc1O recorded_number=105
compound=S=C(NCCc1ccccc1)Nc1ccc(OCc2nc3ccccc3[nH]2)cc1 recorded_number=99.1
compound=Cc1cc2c(cc1Cl)C(=O)/C(=C/c1ccccc1)O2 recorded_number=36.1
compound="O=C(NNc1nc2cc(F)ccc2n2c(CN3CC4CNCC4C3)ccc12)c1ccncn1 (centres undefined)" recorded_number=12.1

###

# Test system: MDA-MB-468 breast
# Assay procedure: NCI-60 one-dose screen, 48 h (100 = growth as untreated, 0 = no growth, -100 = all killed)
# Setup conditions: 10 µM unless noted
This is part of a sample that, as a whole, favours compounds with a hit. Of some 83,000 tested, about 20% had one in any assay.
Here the recorded growth is given for each entry.
Experimental endpoint: growth (%)

compound=COc1ccc(-c2nc(SCC(C)C)nc(NCCc3c[nH]c4ccccc34)c2C#N)cc1 value_units=% recorded_number=58.4
compound=N#Cc1c(NCc2ccccc2)n[nH]c1Nc1ccccc1 value_units=% recorded_number=59.8
compound=COc1ccc2[nH]cc(-c3cc(N)n4nc(-c5cn(C)c6ccccc56)cc4n3)c2c1 value_units=% recorded_number=-80.1
compound="O=C(c1ccc(OCCN2CCOCC2)cc1)C1[C@H](c2ccc(Cl)cc2)[C@@H](c2ccccc2)NC12C(=O)Nc1ccc(Br)cc12 (some centres not stated)" value_units=% recorded_number=-8.11
compound="CN(C)c1nc(NCCNS(=O)(=O)c2ccc(C3=Nc4c(N)nc(N)nc4NC(c4ccccc4)C3)cc2)nc(Nc2ccc(F)cc2)n1 (configuration not stated)" value_units=% recorded_number=-35.8
compound=O=C(CCN1C(=O)/C(=C/c2ccc(F)cc2)SC1=S)N1CCOCC1 value_units=% recorded_number=-11.2
compound=COc1ccc(C(=O)/C=C/c2ccc(Cl)c(Cl)c2)cc1S(N)(=O)=O value_units=% recorded_number=-19.4
compound=COc1ccccc1C(=O)NN1C(=O)/C(=C/C2=Cc3ccccc3OC2)SC1=S value_units=% recorded_number=115
compound="COc1ccc(C2=NN(c3ccccc3)C(c3ccc(OCc4ccccc4)c(OC)c3)C2)cc1OC (configuration not stated)" value_units=% recorded_number=105
compound=C#C[C@]1(O)CC[C@H]2[C@@H]3CC=C4c5sc(-c6ccc(O)c(O)c6)nc5CC[C@]4(C)[C@H]3CC[C@@]21C value_units=% recorded_number=-71.7
compound=CN(C)CCn1c2ccccc2c2nc3cc4ccccc4cc3nc21 value_units=% recorded_number=23.7
compound=COc1ccc2[nH]c(O)c(N=NC(=O)Cn3c(-c4ccccc4)nc4cc(C)ccc43)c2c1 value_units=% recorded_number=34.4
compound=NS(=O)(=O)c1ccc(-n2cc(-c3cccc(NC(=O)c4cc(N5CCOCC5)cc(C(F)(F)F)c4)c3)nn2)cc1 value_units=% recorded_number=69.4
compound=CNC(=O)c1cc(Oc2ccc3nc(NC(=O)Nc4cccc(OC(F)(F)F)c4)sc3c2)ccn1 value_units=% recorded_number=1.5
compound=CCCCc1c(Nn2cnnn2)no[n+]1[O-] value_units=% recorded_number=49.3
compound="C=C1CCC2C3(C)COC(c4ccccc4)OC3CCC2(C)C1CC(Sc1ccccc1)C1=CCOC1=O (configuration not stated)" value_units=% recorded_number=27.3
compound=COc1ccc(-c2nc3cc(C)ccc3n2CC(=O)N=Nc2c(O)[nH]c3ccc(Cl)cc23)cc1 value_units=% recorded_number=-42.6
compound=N#Cc1c(-c2cccc(Cl)c2Cl)cc(-c2ccc3ccccc3c2)[nH]c1=O value_units=% recorded_number=71.4
compound="CC(=O)OC[C@@]1(C)C2CC[C@]3(C)C(CC=C4C5CC(C)(C)CC[C@]5(C(=O)Nc5ccc(C)cc5)CC[C@]43C)[C@@]2(C)C[C@@H](OC(C)=O)[C@@H]1OC(C)=O (some centres not stated)" value_units=% recorded_number=8.22
compound=CN1CCN(c2ccc(C(=O)/C=C/c3ccc(Br)cc3)cc2)CC1 value_units=% recorded_number=-1.53
compound=O=C1Nc2cc(Cl)ccc2/C1=C/c1cccc(OCc2ccccn2)c1 value_units=% recorded_number=1.49
compound="COc1cc2c(c(OC)c1OC)C(=O)CC(c1cccc(NC(=O)c3cccc(NC(=O)[C@H](C)NC(=O)OC(C)(C)C)c3)c1)O2 (some centres not stated)" value_units=% recorded_number=58.1
compound=COc1cc(/C=C/C(=O)c2nnn(-c3ccc(Cl)cc3)c2C)cc(OC)c1OC value_units=% recorded_number=-20.7
compound=C[C@H](Nc1nc(NCCc2ccccc2)nc2ccccc12)c1ccccc1 value_units=% recorded_number=-96.3
compound=O=C(NN1C(=O)/C(=C/C=C/c2ccc([N+](=O)[O-])o2)SC1=S)c1ccccc1O value_units=% recorded_number=-75.4
compound=CC(C)CCNC(=O)N/C(N)=N/c1nc2ccccc2s1 value_units=% recorded_number=5.8
compound="CC(C)C(C(=O)O)n1c(O)c(/C=C2/C=c3cc4c(cc3=NC2=O)OCO4)sc1=S (configuration not stated)" value_units=% recorded_number=101
compound=O=C(O)c1ccc(-c2ccc(/C=N/NC(=O)c3[nH]c4ccc(Br)cc4c3-c3ccccc3)s2)cc1 value_units=% recorded_number=3.12
compound=C[C@H]1CN(C(=O)c2ccc3c(NNC(=O)c4ccncn4)nc4cc(F)c(F)cc4n23)CCN1 value_units=% recorded_number=7.53
compound=COc1ccc(-c2ccnc(SCc3cc4ccccc4[nH]c3=O)n2)cc1 value_units=% recorded_number=6.26
compound=O=C(COc1ccc(NC(=O)Nc2ccc(Cl)c(Cl)c2)cc1)N=Nc1c(O)[nH]c2ccc(Br)cc12 value_units=% recorded_number=-75
compound=CCN1C(=O)/C(=N\N=C(/C)c2ccc3c(c2)Nc2ccccc2S3)c2cc(Cl)ccc21 value_units=% recorded_number=9.33
compound=COc1cc2oc(-c3cccc(C(=O)Nc4ccc(Cl)cc4)c3)cc(=O)c2c(OCCNC(=O)[C@H](CO)NC(=O)OC(C)(C)C)c1OC value_units=% recorded_number=-4.81
compound=Cc1ccc(NCC(=O)Cn2cc(COc3ccc(C=Nc4cnc5ccccc5c4)cc3)nn2)cc1 value_units=% recorded_number=100
compound=CC(=O)Oc1ccccc1C(=O)[Se]C(=NC1CCCCC1)NC1CCCCC1 value_units=% recorded_number=-77.8
compound=Cc1ccc(-c2nc(C#N)c(S(=O)(=O)N3CCN(S(=O)(=O)c4ccc(Cl)cc4)CC3)o2)cc1 value_units=% recorded_number=61.9
compound=Clc1cccc(-c2ccc(OCCCN3CCN(c4ccncc4)CC3)cc2)c1 value_units=% recorded_number=-62.3
